Test system: Haemophilus influenzae
Assay: Antibacterial activity against Haemophilus influenzae ATCC 49766 after 18 hrs by broth microdilution method
Assay type: functional
Settings: ATCC 49766, 18 h
Measure name: MIC

Use the examples below as a reference point.
Consider the compound Cl.Cl.NCC(NO)c1c[nH]c2cc(F)ccc12 (stereo not drawn) and give its measured MIC.
> 128 µg/mL

Cl.Cl.NCC(NO)c1c[nH]c2ccc(F)cc12 (stereo not drawn) ?
> 128 µg/mL

With those in mind, consider the next compound.
Consider the compound Cl.Cl.NCC(NO)c1c[nH]c2ccccc12 (stereo not drawn) and give its measured MIC.
> 128 µg/mL

---

System: Staphylococcus aureus
Assay: Antibacterial activity against Staphylococcus aureus ATCC 6538 after 18 hrs by broth microdilution method
Type: functional
Details: ATCC 6538, 18 h
In this section we review reported MIC values for a set of compounds.

Use the examples below as a reference point.
Consider the compound CC(c1c[nH]c2ccc(Cl)cc12)N(O)Cc1ccccc1 (stereo not given) and give its measured MIC.
> 128 µg/mL

CC(C)(C)OC(=O)NCC(NO)c1c[nH]c2ccc(F)cc12 (stereo not given) ?
> 128 µg/mL

CC(c1c[nH]c2ccc(F)cc12)N(O)Cc1ccccc1 (stereo not given) ?
> 128 µg/mL

CC(C)(C)OC(=O)NCC(NO)c1c[nH]c2ccccc12 (stereo not given) ?
> 128 µg/mL

Further cases:
Consider the compound CC(c1c[nH]c2ccc(Br)cc12)N(O)Cc1ccccc1 (stereo not given) and give its measured MIC.
> 128 µg/mL

---

In this section we review reported MIC values for a set of compounds.
Test system: Staphylococcus epidermidis
Experiment: Antibacterial activity against Staphylococcus epidermidis CIP 103627 after 18 hrs by broth microdilution method
Format: functional
Conditions: CIP 103627, 18 h

Use the examples below as a reference point.
Consider the compound CC(C)(C)OC(=O)NCC(NO)c1c[nH]c2ccc(F)cc12 (centres undefined) and give its measured MIC.
> 128 µg/mL

CC(C)(C)OC(=O)NCC(c1c[nH]c2ccc(F)cc12)N(O)Cc1ccccc1 (centres undefined) ?
> 128 µg/mL

CC(C)CC(c1c[nH]c2ccc(Br)cc12)N(O)Cc1ccccc1 (centres undefined) ?
> 128 µg/mL

Further cases:
Consider the compound CC(C)(C)OC(=O)NCC(NO)c1c[nH]c2cc(F)ccc12 (centres undefined) and give its measured MIC.
> 128 µg/mL

CC(C)(C)OC(=O)NCC(c1c[nH]c2ccccc12)N(O)Cc1ccccc1 (centres undefined) ?
> 128 µg/mL

CC(c1c[nH]c2ccc(F)cc12)N(O)Cc1ccccc1 (centres undefined) ?
> 128 µg/mL

CC(c1c[nH]c2ccc(I)cc12)N(O)Cc1ccccc1 (centres undefined) ?
> 128 µg/mL

CC(C)(C)OC(=O)NCC(NO)c1c[nH]c2ccccc12 (centres undefined) ?
> 128 µg/mL

CC(C)(C)OC(=O)NCC(c1c[nH]c2cc(F)ccc12)N(O)Cc1ccccc1 (centres undefined) ?
> 128 µg/mL

---

In this section we review reported MIC values for a set of compounds.
Test system: Staphylococcus aureus
Assay: Antibacterial activity against Staphylococcus aureus ATCC 6538 after 18 hrs by broth microdilution method
Type: functional
Conditions: ATCC 6538, 18 h

Look up MIC with Staphylococcus aureus for this compound: CC(C)(C)OC(=O)NCC(c1c[nH]c2ccccc12)N(O)Cc1ccccc1 (stereo not drawn)
> 128 mg/L

CC(C)(C)OC(=O)NCC(NO)c1c[nH]c2cc(F)ccc12 (stereo not drawn) ?
> 128 mg/L

Further cases:
Look up MIC with Staphylococcus aureus for this compound: CC(C)(C)OC(=O)NCC(c1c[nH]c2cc(F)ccc12)N(O)Cc1ccccc1 (stereo not drawn)
> 128 mg/L

---

Tested on: Staphylococcus epidermidis
Experiment: Antibacterial activity against Staphylococcus epidermidis ATCC 12228 after 18 hrs by broth microdilution method
Assay type: functional
Settings: ATCC 12228, 18 h
In this section we review reported MIC values for a set of compounds.

Use the examples below as a reference point.
Consider the compound CC(c1c[nH]c2ccc(Br)cc12)N(O)Cc1ccccc1 (stereo not drawn) and give its measured MIC.
> 128 µg/mL

CC(C)(C)OC(=O)NCC(NO)c1c[nH]c2ccccc12 (stereo not drawn) ?
> 128 µg/mL

With those in mind, consider the next compound.
Consider the compound CC(C)(C)OC(=O)NCC(c1c[nH]c2cc(F)ccc12)N(O)Cc1ccccc1 (stereo not drawn) and give its measured MIC.
> 128 µg/mL
